Tested on: PC-3
assayName: Cytotoxicity against human PC3 cells after 72 hrs by WST1 assay
Assay type: functional, cell-based
protocolConditions: PC-3, 72 h
assayEndpoint: log10 of IC50 (log10 of the value in µM)

INSERT INTO assay_data (substancesmiles, reported) VALUES
  ('COc1ccc(Cn2cnc3c4nc(=O)n(Cc5ccc(OCCO)cc5)c-4ncnc32)cc1', 1.29),
  ('COc1ccc(Cn2cnc3c4nc(=O)n(Cc5cccc(OC)c5)c-4ncnc32)cc1', 0.71),
  ('COc1ccc(Cn2cnc3c4nc(=O)n(Cc5ccc(N(C)C)cc5)c-4ncnc32)cc1', 2.31),
  ('COc1ccc(Cn2cnc3c4nc(=O)n(CCCl)c-4ncnc32)cc1', 0.97),
  ('COc1ccc(Cn2c3ncnc4c(ncn4Cc4ccc(F)cc4)c-3nc2=O)cc1', 0.88);

---

System: PC-3
assayName: Cytotoxicity against human PC3 cells after 72 hrs by WST1 assay
Format: functional, cell-based
protocolConditions: PC-3, 72 h
pIC50: −log10 of the molar value.
This section presents compounds with their documented pIC50 values.
assayEndpoint: pIC50

INSERT INTO results (substancesmiles, assayendpoint, reported) VALUES
  ('COc1ccc(Cn2cnc3c4nc(=O)n(Cc5cccnc5)c-4ncnc32)cc1', 'pIC50', 4.57),
  ('COc1ccc(Cn2cnc3c4nc(=O)n(Cc5cccc(Br)c5)c-4ncnc32)cc1', 'pIC50', 5.59),
  ('COc1ccc(Cn2cnc3c4nc(=O)n(Cc5ccc(Cl)cc5)c-4ncnc32)cc1', 'pIC50', 6.04),
  ('COc1ccc(Cn2cnc3c4nc(=O)n(Cc5ccc(Br)cc5)c-4ncnc32)cc1', 'pIC50', 6.01),
  ('COc1ccc(Cn2cnc3c4nc(=O)n(Cc5cccc(Cl)c5)c-4ncnc32)cc1', 'pIC50', 6.01),
  ('COc1ccc(Cn2cnc3c4nc(=O)n(Cc5ccc(F)c(F)c5)c-4ncnc32)cc1', 'pIC50', 5.80);

---

assayName: Cytotoxicity against human H460 cells after 72 hrs by WST1 assay
Type: functional, cell-based
protocolConditions: NCI-H460, 72 h
Quick rule for you: IC50 under 8000 nM gets fulfilled, anything else gets not fulfilled.

INSERT INTO measurements (substancesmiles, category) VALUES
  ('COc1ccc(Cn2cnc3c4nc(=O)n(Cc5cccnc5)c-4ncnc32)cc1', 'not fulfilled'),
  ('COc1ccc(Cn2cnc3c4nc(=O)n(Cc5cccc(F)c5)c-4ncnc32)cc1', 'fulfilled'),
  ('COc1ccc(Cn2cnc3c4nc(=O)n(Cc5ccc(Br)cc5)c-4ncnc32)cc1', 'fulfilled'),
  ('COc1ccc(Cn2cnc3c4nc(=O)n(Cc5ccc(Cl)cc5)c-4ncnc32)cc1', 'fulfilled'),
  ('COc1ccc(Cn2cnc3c4nc(=O)n(Cc5ccc(OCCO)cc5)c-4ncnc32)cc1', 'not fulfilled');

---

assayName: Cytotoxicity against human H460 cells after 72 hrs by WST1 assay
Assay type: functional, cell-based
protocolConditions: NCI-H460, 72 h
pIC50: −log10 of the molar value.
This section presents molecules with their documented pIC50 values.
assayEndpoint: pIC50

INSERT INTO assay_data (substancesmiles, assayendpoint, reported) VALUES
  ('COc1ccc(Cn2cnc3c4nc(=O)n(Cc5cccc(OC)c5)c-4ncnc32)cc1', 'pIC50', 5.81),
  ('COc1ccc(Cn2cnc3c4nc(=O)n(Cc5ccc(F)c(F)c5)c-4ncnc32)cc1', 'pIC50', 6.13),
  ('COc1ccc(Cn2cnc3c4nc(=O)n(Cc5cccc(Br)c5)c-4ncnc32)cc1', 'pIC50', 5.93),
  ('COc1ccc(Cn2cnc3c4nc(=O)n(Cc5cccc(C(F)(F)F)c5)c-4ncnc32)cc1', 'pIC50', 5.51),
  ('COc1ccc(Cn2cnc3c4nc(=O)n(Cc5ccc(O)cc5)c-4ncnc32)cc1', 'pIC50', 5.33),
  ('COc1ccc(Cn2cnc3c4nc(=O)n(Cc5cccc(Cl)c5)c-4ncnc32)cc1', 'pIC50', 6.00),
  ('COc1ccc(Cn2cnc3c4nc(=O)n(CCCl)c-4ncnc32)cc1', 'pIC50', 5.10),
  ('COc1ccc(Cn2c3ncnc4c(ncn4Cc4ccc(F)cc4)c-3nc2=O)cc1', 'pIC50', 5.30),
  ('COc1ccc(Cn2cnc3c4nc(=O)n(Cc5ccc(N(C)C)cc5)c-4ncnc32)cc1', 'pIC50', 5.07),
  ('CCOC(=O)Cn1c2ncnc3c(ncn3Cc3ccc(OC)cc3)c-2nc1=O', 'pIC50', 4.46),
  ('COc1ccc(Cn2c3ncnc4c(ncn4Cc4ccc(OC)cc4)c-3nc2=O)cc1', 'pIC50', 5.54),
  ('COCCOc1ccc(Cn2c3ncnc4c(ncn4Cc4ccc(OC)cc4)c-3nc2=O)cc1', 'pIC50', 5.29);

---

This section presents compounds with their documented inhibition of growth at 100 µM values.
Test system: MCF7
assayName: Growth inhibition of human MCF7 cells at 100 uM after 72 hrs by WST1 assay
Format: functional
protocolConditions: MCF7, 72 h, read-out: GI
assayEndpoint: inhibition of growth at 100 µM

INSERT INTO results (substancesmiles, reported) VALUES
  ('COc1ccc(Cn2cnc3c4nc(=O)n(CCN5CCCCC5)c-4ncnc32)cc1', '≤ 75%'),
  ('COc1ccc(Cn2cnc3c4nc(=O)n(Cc5ccccc5OC)c-4ncnc32)cc1', '≤ 75%'),
  ('COc1ccc(Cn2c3nc(CCC(=O)O)nc4c(ncn4Cc4ccc(OC)cc4)c-3nc2=O)cc1', '≤ 75%'),
  ('COc1ccc(Cn2cnc3c4nc(=O)n(-c5ccccc5)c-4ncnc32)cc1', '≤ 75%'),
  ('COc1ccc(Cn2c3ncnc4c(ncn4Cc4ccccc4)c-3nc2=O)cc1', '≤ 75%'),
  ('COc1ccc(Cn2c3nc(C)nc4c(ncn4Cc4ccc(OC)cc4)c-3nc2=O)cc1', '≤ 75%'),
  ('CCn1c2ncnc3c(ncn3Cc3ccc(OC)cc3)c-2nc1=O', '≤ 75%'),
  ('CCn1cnc2c3nc(=O)n(Cc4ccc(OC)cc4)c-3ncnc21', '≤ 75%'),
  ('CCOC(=O)Cn1c2ncnc3c(ncn3Cc3ccc(OC)cc3)c-2nc1=O', '≤ 75%'),
  ('COc1ccc(Cn2cnc3c4nc(=O)n(CCCl)c-4ncnc32)cc1', '≤ 75%'),
  ('COc1ccc(Cn2cnc3c4nc(=O)n(-c5ccc(OC)cc5)c-4ncnc32)cc1', '≤ 75%'),
  ('COc1ccc(CCn2c3ncnc4c(ncn4Cc4ccc(OC)cc4)c-3nc2=O)cc1', '≤ 75%'),
  ('CCc1nc2n(Cc3ccc(OC)cc3)c(=O)nc-2c2ncn(Cc3ccc(OC)cc3)c2n1', '≤ 75%'),
  ('COc1ccc(Cn2cnc3c4nc(=O)n(CCN5CCOCC5)c-4ncnc32)cc1', '≤ 75%'),
  ('COc1ccc(Cn2c3nc(CCCC(=O)O)nc4c(ncn4Cc4ccc(OC)cc4)c-3nc2=O)cc1', '≤ 75%'),
  ('COc1ccc(Cn2c3nc(-c4ccccc4)nc4c(ncn4Cc4ccc(OC)cc4)c-3nc2=O)cc1', '≤ 75%'),
  ('COc1ccc(Cn2c3nc(-c4ccc(C)cc4)nc4c(ncn4Cc4ccc(OC)cc4)c-3nc2=O)cc1', '≤ 75%');

---

Test system: PC-3
assayName: Cytotoxicity against human PC3 cells after 72 hrs by WST1 assay
Assay type: functional, cell-based
protocolConditions: PC-3, 72 h
Quick rule for you: IC50 under 7 µM gets Criterion met, anything else gets Criterion not met.

INSERT INTO assay_data (substancesmiles, category) VALUES
  ('COCCOc1ccc(Cn2c3ncnc4c(ncn4Cc4ccc(OC)cc4)c-3nc2=O)cc1', 'Criterion met'),
  ('COc1ccc(Cn2cnc3c4nc(=O)n(Cc5cccc(C(F)(F)F)c5)c-4ncnc32)cc1', 'Criterion not met'),
  ('COc1ccc(Cn2cnc3c4nc(=O)n(Cc5cccc(F)c5)c-4ncnc32)cc1', 'Criterion met'),
  ('COc1ccc(Cn2cnc3c4nc(=O)n(Cc5ccc(O)cc5)c-4ncnc32)cc1', 'Criterion met'),
  ('COc1ccc(Cn2c3ncnc4c(ncn4Cc4ccc(OC)cc4)c-3nc2=O)cc1', 'Criterion met');

---

Test system: PC-3
assayName: Growth inhibition of human PC3 cells at 100 uM after 72 hrs by WST1 assay
Type: functional
protocolConditions: PC-3, 72 h, read-out: GI
assayEndpoint: inhibition of growth at 100 µM

INSERT INTO assay_data (substancesmiles, reported) VALUES
  ('COc1ccc(Cn2cnc3c4nc(=O)n(Cc5ccccc5OC)c-4ncnc32)cc1', '≤ 75%'),
  ('COc1ccc(CCn2c3ncnc4c(ncn4Cc4ccc(OC)cc4)c-3nc2=O)cc1', '≤ 75%'),
  ('COc1ccc(Cn2cnc3c4nc(=O)n(CCN5CCCCC5)c-4ncnc32)cc1', '≤ 75%'),
  ('COc1ccc(Cn2c3nc(-c4ccccc4)nc4c(ncn4Cc4ccc(OC)cc4)c-3nc2=O)cc1', '≤ 75%'),
  ('COc1ccc(Cn2cnc3c4nc(=O)n(CCN5CCOCC5)c-4ncnc32)cc1', '≤ 75%'),
  ('COc1ccc(Cn2c3nc(CCC(=O)O)nc4c(ncn4Cc4ccc(OC)cc4)c-3nc2=O)cc1', '≤ 75%'),
  ('COc1ccc(Cn2c3ncnc4c(ncn4Cc4ccccc4)c-3nc2=O)cc1', '≤ 75%'),
  ('CCn1cnc2c3nc(=O)n(Cc4ccc(OC)cc4)c-3ncnc21', '≤ 75%'),
  ('COc1ccc(Cn2c3nc(CCCC(=O)O)nc4c(ncn4Cc4ccc(OC)cc4)c-3nc2=O)cc1', '≤ 75%'),
  ('CCc1nc2n(Cc3ccc(OC)cc3)c(=O)nc-2c2ncn(Cc3ccc(OC)cc3)c2n1', '≤ 75%'),
  ('COc1ccc(Cn2c3nc(-c4ccc(C)cc4)nc4c(ncn4Cc4ccc(OC)cc4)c-3nc2=O)cc1', '≤ 75%'),
  ('COc1ccc(Cn2cnc3c4nc(=O)n(-c5ccc(OC)cc5)c-4ncnc32)cc1', '≤ 75%'),
  ('COc1ccc(Cn2c3nc(C)nc4c(ncn4Cc4ccc(OC)cc4)c-3nc2=O)cc1', '≤ 75%'),
  ('CCn1c2ncnc3c(ncn3Cc3ccc(OC)cc3)c-2nc1=O', '≤ 75%'),
  ('COc1ccc(Cn2cnc3c4nc(=O)n(-c5ccccc5)c-4ncnc32)cc1', '≤ 75%'),
  ('CCOC(=O)Cn1c2ncnc3c(ncn3Cc3ccc(OC)cc3)c-2nc1=O', '≤ 75%');
